The measured values listed here are drawn from patent US20250320312A1.

tgt: T1, Peptide 4: Biotin-AGGGGSGGGGSGGGGSAAA-Tyr-acid (N-terminal biotin; C-terminal acid)
T1 construct: Control peptide without PC
T1 peptide: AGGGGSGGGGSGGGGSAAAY
test: scFv ELISA
metric: OD450 (OD450)
I only need the number, in OD450, no unit after it.

Query: Param item = PcOxP_DB03_D03 (scFv, V domains shown, scFv in periplasmic extract) VH: EVQLLESGGGLVQPGGSLRLSCAASGFTFSDYYMEWVRQAPGKGLEWVAASRNKANDYTTEYADSVKGRFTISRDNSKNTLYLQMNSLRAEDTAVYYCARDYYFSSYWYFDVWGQGTLVTVSS VL: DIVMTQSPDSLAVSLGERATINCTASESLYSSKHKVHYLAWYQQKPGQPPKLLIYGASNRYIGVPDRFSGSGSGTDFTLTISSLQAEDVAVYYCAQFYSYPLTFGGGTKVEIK ; retrieve measured OD450.
Response: 0.04

Query: Param item = PcOxP_DB02_H09 (scFv, V domains shown, scFv in periplasmic extract) VH: EVQLLESGGGLVQPGGSLRLSCAASGFTFSSYYMEWVRQAPGKGLEWVAASRNKANDYTYEYADSVKGRFTISRDNSKNTLYLQMNSLRAEDTAVYYCARDYYESSYWYFDVWGQGTLVTVSS VL: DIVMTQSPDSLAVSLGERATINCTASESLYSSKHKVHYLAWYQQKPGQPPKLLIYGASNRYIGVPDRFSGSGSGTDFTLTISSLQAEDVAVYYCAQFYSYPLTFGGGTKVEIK ; retrieve measured OD450.
Response: 0.04

Query: Param item = PcOxP_DB03_F05 (scFv, V domains shown, scFv in periplasmic extract) VH: EVQLLESGGGLVQPGGSLRLSCAASGFTFSDYYMEWVRQAPGKGLEWVAASRNKGNDYTTAYADSVKGRFTISRDNSKNTLYLQMNSLRAEDTAVYYCARDYFGSSYWYFDVWGQGTLVTVSS VL: DIVMTQSPDSLAVSLGERATINCTASQSVYSSKHNKHYLAWYQQKPGQPPKLLIYGASNPYIGVPDRFSGSGSGTDFTLTISSLQAEDVAVYYCAQFYSYPLTFGGGTKVEIK ; retrieve measured OD450.
Response: 0.05
